pKi values, listed per item
Biological target: human cannabinoid 1 receptor (hCB1-R) (Homo sapiens)
Sequence (P21554 whole entry): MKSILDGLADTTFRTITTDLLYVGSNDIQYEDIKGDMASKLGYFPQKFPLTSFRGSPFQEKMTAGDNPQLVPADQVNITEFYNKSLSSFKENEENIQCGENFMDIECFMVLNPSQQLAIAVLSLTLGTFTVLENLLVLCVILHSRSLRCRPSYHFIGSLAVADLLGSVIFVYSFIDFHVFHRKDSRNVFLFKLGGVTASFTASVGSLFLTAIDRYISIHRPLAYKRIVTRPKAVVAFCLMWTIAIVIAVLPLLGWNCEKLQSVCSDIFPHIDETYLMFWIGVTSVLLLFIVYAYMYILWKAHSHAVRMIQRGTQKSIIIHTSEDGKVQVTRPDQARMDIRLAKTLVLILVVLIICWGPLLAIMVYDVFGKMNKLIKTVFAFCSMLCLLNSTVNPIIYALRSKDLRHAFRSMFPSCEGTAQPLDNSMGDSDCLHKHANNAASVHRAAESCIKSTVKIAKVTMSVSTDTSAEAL
The scale used: pKi is minus the common logarithm of the concentration in molar units.

Worked cases, answers included:
[
  {
    "compound": "O=C(N[C@H]1CCCC[C@H]1O)c1cnc(OCC(F)(F)F)c(-c2ccc(Cl)c(Cl)c2)c1 [Cpd L]",
    "experimental.system": "human cannabinoid 1 receptor (hCB1-R) (Homo sapiens)",
    "test.value": 5.15
  },
  {
    "compound": "O=C(N[C@@H]1CCCC[C@H]1O)c1cnc(OCC(F)(F)F)c(-c2ccc(Cl)cc2)c1 [Cpd J]",
    "experimental.system": "human cannabinoid 1 receptor (hCB1-R) (Homo sapiens)",
    "test.value": 7.91
  },
  {
    "compound": "O=C(N[C@@H]1CCCC[C@H]1O)c1cnc(OCC2CC2)c(-c2ccc(Cl)cc2)c1 [Cpd H]",
    "experimental.system": "human cannabinoid 1 receptor (hCB1-R) (Homo sapiens)",
    "test.value": 7.94
  }
]

*Q* pKi of [N-]=[N+]=Nc1ccc(-c2cc(C(=O)N[C@@H]3CCCC[C@H]3O)cnc2OCC2CC2)cc1Cl [Cpd K] on human cannabinoid 1 receptor (hCB1-R) (Homo sapiens)?
*A* 5.59

*Q* Okay, and [3H]c1nc(OCC2CC2)c(-c2ccc(N=[N+]=[N-])c(Cl)c2)c([3H])c1C(=O)N[C@@H]1CCCC[C@H]1O [^3H-Cpd K] ?
*A* 5.59

----------
Hgb, Min values, listed per item
System: Adriamycin (ADR)-induced nephropathy in Balb/c mice
Test: ADR nephropathy: WBC, hemoglobin, hematocrit, ALT, AST
Type: in vivo, mouse
Details: ADR-induced nephropathy, 28 days treatment; group minimum
Could you give me the number in g/dL? Just the number is fine.

[
  {
    "compound": "O=C(N[C@@H]1CCCC[C@H]1O)c1cnc(OCC(F)(F)F)c(-c2ccc(Cl)c(Cl)c2)c1",
    "experimental.system": "Adriamycin (ADR)-induced nephropathy in Balb/c mice",
    "outcome.measure": "Hgb, Min",
    "output.unit": "g/dL",
    "test.value": 12.2
  }
]

*Q* Hgb, Min of Cc1oc(-c2cccc(C(F)(F)F)c2)nc1Cn1c(C)cc2cc(C(O)(C(F)(F)F)C(F)(F)F)ccc21 [Cpd C, reference compound] on Adriamycin (ADR)-induced nephropathy in Balb/c mice?
*A* 11

*Q* Okay, and O=C(N[C@@H]1CCCC[C@H]1O)c1ccc(OCC(F)(F)F)c(-c2ccc(Cl)c(Cl)c2)n1 ?
*A* 12.1

----------
Test system: Adriamycin (ADR)-induced nephropathy in Balb/c mice
Assay: ADR nephropathy: WBC, hemoglobin, hematocrit, ALT, AST
Format: in vivo, mouse
Conditions: ADR-induced nephropathy, 28 days treatment; group maximum
outcome.measure: Hgb, Max (g/dL)
Could you give me the number in g/dL? Just the number is fine.

[
  {
    "compound": "Cc1oc(-c2cccc(C(F)(F)F)c2)nc1Cn1c(C)cc2cc(C(O)(C(F)(F)F)C(F)(F)F)ccc21 [Cpd C, reference compound]",
    "Hgb, Max, g/dL": 15.9
  },
  {
    "compound": "O=C(N[C@@H]1CCCC[C@H]1O)c1ccc(OCC(F)(F)F)c(-c2ccc(Cl)c(Cl)c2)n1",
    "Hgb, Max, g/dL": 15.5
  }
]

Shift focus to the following entry.
*Q* Would you kindly share the measured Hgb, Max for O=C(N[C@@H]1CCCC[C@H]1O)c1cnc(OCC(F)(F)F)c(-c2ccc(Cl)c(Cl)c2)c1 ?
*A* 13.7

----------
Tested on: Adriamycin (ADR)-induced nephropathy in Balb/c mice
Experiment: ADR nephropathy: WBC, hemoglobin, hematocrit, ALT, AST
Assay type: in vivo, mouse
Conditions: ADR-induced nephropathy, 28 days treatment; 25th quartile
Hgb, QR(25) values, listed per item
Could you give me the number in g/dL? Just the number is fine.

Worked cases, answers included:
[
  {
    "molecule": "Cc1oc(-c2cccc(C(F)(F)F)c2)nc1Cn1c(C)cc2cc(C(O)(C(F)(F)F)C(F)(F)F)ccc21 [Cpd C, reference compound]",
    "experimental.system": "Adriamycin (ADR)-induced nephropathy in Balb/c mice",
    "Hgb, QR(25) [g/dL]": 12.5
  },
  {
    "molecule": "O=C(N[C@@H]1CCCC[C@H]1O)c1cnc(OCC(F)(F)F)c(-c2ccc(Cl)c(Cl)c2)c1",
    "experimental.system": "Adriamycin (ADR)-induced nephropathy in Balb/c mice",
    "Hgb, QR(25) [g/dL]": 12.6
  }
]

*Q* Would you kindly share the measured Hgb, QR(25) for O=C(N[C@@H]1CCCC[C@H]1O)c1ccc(OCC(F)(F)F)c(-c2ccc(Cl)c(Cl)c2)n1 ?
*A* 13.1

----------
Test system: human THP1 macrophages
Assay: apoAI-mediated (ABCA1) cholesterol efflux from cholesterol-loaded THP1 macrophages
Assay type: cell-based
Parameters: dose or concentration left out as unconfirmed
Settings: average(SEM)
ABCA1 Efflux % values, listed per item

Worked cases, answers included:
[
  {
    "molecule": "Cc1cncc(-c2cc(NC(=O)c3cccnc3)cnc2OCC(F)(F)F)c1 [Cpd S]",
    "outcome.measure": "ABCA1 Efflux %",
    "test.value": "3(0.8) %"
  },
  {
    "molecule": "O=C(N[C@H]1CCCC[C@H]1O)c1cnc(OCC(F)(F)F)c(-c2ccc(Cl)c(Cl)c2)c1 [Cpd L]",
    "outcome.measure": "ABCA1 Efflux %",
    "test.value": "104(18.8) %"
  },
  {
    "molecule": "O=C(Nc1cnc(OCC(F)(F)F)c(-c2ccc(Cl)cc2)c1)c1cccnc1 [Cpd M]",
    "outcome.measure": "ABCA1 Efflux %",
    "test.value": "133(42.5) %"
  }
]

*Q* Would you kindly share the measured ABCA1 Efflux % for O=C(N[C@@H]1CCCOC1=O)c1cc(-c2ccc(Cl)cc2)c(OCC(F)(F)F)cn1 [Cpd Q] ?
*A* 2(0.6) %

These entries and their values trace back to paper PMC8329197.
